Measured values drawn from ChEMBL document CHEMBL4020736 for this set.

- ASSAY NAME: AUC (0 to 24 hrs) in Beagle dog at 0.1 mg/kg, iv by LC-MS/MS analysis
- Type: ADME, organism-based, Canis lupus familiaris
- Parameters: time < 24 hr, dose 0.1 mg/kg, route intravenous
- CONDITION: in vivo
READOUT KIND: AUC(0-t) at 24 h (ng·h/mL)
Please state the figure in ng·h/mL; there is no need to write the unit.

INPUT: Return AUC(0-t) at 24 h (reported value) for this molecule: CC[C@H]1[C@@H](O)CC(=O)N1c1ccc(C#N)c(C(F)(F)F)c1
OUTPUT: 150

---

- ASSAY NAME: Clearance in mouse liver microsomes at 1 uM after 60 mins in presence of NADPH by UPLC analysis
- Type: ADME, microsome
- CONDITION: read-out: CLH
READOUT KIND: microsomal CLint at 1 µM

INPUT: Assign microsomal CLint at 1 µM to the following record: CC[C@H]1[C@@H](O)CC(=O)N1c1ccc(C#N)c(C(F)(F)F)c1
OUTPUT: 3 µL/min/mg

---

- ASSAY NAME: Volume of distribution at steady state in cynomolgus monkey at 0.1 mg/kg, iv by LC-MS/MS analysis
- Type: ADME, organism-based, Macaca fascicularis
- CONDITION: in vivo, read-out: Vdss
READOUT KIND: Vd (L/kg)
Give the value in L/kg but do not write L/kg after it.

INPUT: Identify measured Vd corresponding to CC[C@H]1[C@@H](O)CC(=O)N1c1ccc(C#N)c(C(F)(F)F)c1
OUTPUT: 1.47

---

- ASSAY NAME: MRT in Beagle dog at 0.1 mg/kg, iv by LC-MS/MS analysis
- Type: ADME, organism-based, Canis lupus familiaris
- CONDITION: in vivo
READOUT KIND: MRT

INPUT: Tell us which MRT value is on record for CC[C@H]1[C@@H](O)CC(=O)N1c1ccc(C#N)c(C(F)(F)F)c1
OUTPUT: 4.84 h

---

- TESTED TARGET: Androgen receptor (Homo sapiens)
- Sequence (P10275 whole entry): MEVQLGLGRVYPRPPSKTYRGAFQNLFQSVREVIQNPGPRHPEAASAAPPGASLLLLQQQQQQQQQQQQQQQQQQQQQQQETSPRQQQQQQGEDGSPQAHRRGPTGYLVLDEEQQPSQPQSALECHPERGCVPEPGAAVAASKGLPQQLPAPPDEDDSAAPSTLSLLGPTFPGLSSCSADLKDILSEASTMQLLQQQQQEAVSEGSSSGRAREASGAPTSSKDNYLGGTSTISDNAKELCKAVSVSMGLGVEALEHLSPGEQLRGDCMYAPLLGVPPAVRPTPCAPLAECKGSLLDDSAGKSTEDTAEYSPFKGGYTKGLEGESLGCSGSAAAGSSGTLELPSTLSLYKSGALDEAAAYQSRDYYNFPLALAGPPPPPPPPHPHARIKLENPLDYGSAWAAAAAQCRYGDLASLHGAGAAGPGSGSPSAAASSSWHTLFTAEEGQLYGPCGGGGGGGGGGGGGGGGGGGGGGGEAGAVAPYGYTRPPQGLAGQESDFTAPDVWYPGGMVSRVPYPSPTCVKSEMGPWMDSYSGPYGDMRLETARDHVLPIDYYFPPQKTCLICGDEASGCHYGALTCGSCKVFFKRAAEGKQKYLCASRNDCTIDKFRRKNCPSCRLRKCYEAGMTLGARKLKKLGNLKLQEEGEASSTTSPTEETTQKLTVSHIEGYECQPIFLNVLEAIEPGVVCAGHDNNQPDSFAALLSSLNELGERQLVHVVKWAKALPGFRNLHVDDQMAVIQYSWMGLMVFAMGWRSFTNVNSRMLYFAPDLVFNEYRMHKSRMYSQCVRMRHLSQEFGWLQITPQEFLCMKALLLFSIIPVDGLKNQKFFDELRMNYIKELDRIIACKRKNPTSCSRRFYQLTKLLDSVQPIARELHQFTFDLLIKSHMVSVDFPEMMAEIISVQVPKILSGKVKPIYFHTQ
Under this convention, true (1) denotes IC50 strictly below 3 nM and false (0) denotes IC50 at or above 3 nM.

INPUT: # strict comparison: is reported IC50 < 3 nM? input = CC[C@H]1[C@@H](O)CC(=O)N1c1ccc(C#N)c(Cl)c1C
OUTPUT: false (0)

INPUT: Report whether reported IC50 is lower than 3 nM (strictly) for CC[C@H]1[C@@H](O)CC(=O)N1c1ccc(C#N)c(Cl)c1
OUTPUT: false (0)

INPUT: State whether 3 nM exceeds IC50 recorded for C[C@H]1[C@@H](O)[C@H](Cc2ccccc2)C(=O)N1c1ccc(C#N)c(Cl)c1 .
OUTPUT: false (0)

INPUT: Given the entry C[C@H]1[C@@H](O)C(F)(F)C(=O)N1c1ccc(C#N)c(Cl)c1 , would its reported IC50 be below 3 nM?
OUTPUT: true (1)

INPUT: Confirm or reject: IC50 of CC(C)C[C@H]1[C@@H](O)CC(=O)N1c1ccc(C#N)c(Cl)c1 lies strictly below 3 nM
OUTPUT: false (0)

INPUT: Lab log: compare recorded IC50 with 3 nM; is it strictly lower for CC[C@@H]1C(=O)N(c2ccc(C#N)c(Cl)c2)[C@@H](C)[C@H]1O ?
OUTPUT: false (0)
